B1: HNF4A (parent)
chain: RFSRQCVVDKDKRNQCRYCRLKKC

variants of: B1; assay: protein stability index of a GFP-peptide fusion (GPS, HEK-293T) (PSI 1-6); higher = more stable; settings: c terminus: a fixed tail appended;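 further: lentivirally expressed fusions sorted by FACS into six bins by GFP to DsRed ratio, PSI derived from sequencing read proportions per bin multiplied by bin number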
protein stability index values for the variants below.

| MUTATION SPEC | protein stability index |
| --- | --- |
| D11A | 2.28 |
| K10E | 2.14 |
| V7C | 2.62 |
| S3T | 2.67 |
| N14Q | 2.18 |
| Q15I | 2.33 |
| V8K | 2.86 |
| C24R | 2.42 |
| V8C | 3.21 |
| K12L | 1.91 |
| S3K | 3.33 |
| R17N | 3.45 |
| C19A | 3.07 |
| R20M | 2.96 |
| K22L | 2.57 |
| L21P | 2.94 |
| Y18Q | 3.54 |
| K10T | 2.41 |
| Q5D | 2.3 |
| C16Y | 3.48 |
| C24F | 2.55 |
| C24N | 2.89 |
| V7E | 2.05 |
| C24I | 2.93 |
| N14E | 2.95 |
| V7Y | 2.93 |
| R13K | 2.4 |
| C19V | 2.95 |
| C24W | 1.81 |
| D9V | 2.33 |
| F2I | 2.39 |
| C19R | 3.37 |
| R17W | 2.42 |
| Y18T | 3.2 |
| R20T | 2.74 |
| F2E | 3.6 |
| C6D | 2.47 |
| K23N | 1.77 |
| F2Y | 3.32 |
| D9L | 1.92 |
| K10W | 2.59 |
| K23M | 3.12 |
| Q15F | 2.12 |
| R1F | 1.94 |
| C16Q | 3.38 |
| C24Q | 2.5 |
